Molecular target: DNA topoisomerase 1 (Homo sapiens) (UniProt P11387)
Sequence (P11387 whole entry): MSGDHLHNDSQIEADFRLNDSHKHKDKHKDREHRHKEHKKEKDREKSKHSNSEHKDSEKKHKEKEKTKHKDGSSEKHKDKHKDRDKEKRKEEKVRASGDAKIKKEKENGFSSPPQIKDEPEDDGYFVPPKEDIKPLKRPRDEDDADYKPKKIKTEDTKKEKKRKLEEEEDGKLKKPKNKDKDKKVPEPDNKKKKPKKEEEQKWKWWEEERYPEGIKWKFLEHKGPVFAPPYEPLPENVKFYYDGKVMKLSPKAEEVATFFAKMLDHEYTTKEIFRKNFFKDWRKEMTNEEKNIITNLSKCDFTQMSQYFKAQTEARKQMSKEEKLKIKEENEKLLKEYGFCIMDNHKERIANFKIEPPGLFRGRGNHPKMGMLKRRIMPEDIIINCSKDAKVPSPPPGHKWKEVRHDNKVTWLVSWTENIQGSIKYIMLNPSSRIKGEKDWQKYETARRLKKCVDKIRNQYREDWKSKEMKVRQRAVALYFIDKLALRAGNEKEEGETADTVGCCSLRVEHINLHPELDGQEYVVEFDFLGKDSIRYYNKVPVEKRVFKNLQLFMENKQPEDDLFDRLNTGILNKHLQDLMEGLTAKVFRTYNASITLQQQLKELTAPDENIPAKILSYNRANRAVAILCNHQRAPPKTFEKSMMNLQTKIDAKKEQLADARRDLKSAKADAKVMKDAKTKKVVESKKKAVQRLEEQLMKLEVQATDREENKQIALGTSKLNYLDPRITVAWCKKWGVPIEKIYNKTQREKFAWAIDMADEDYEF
Test: Inhibition of human recombinant topoisomerase 1-mediated relaxation of supercoiled pBR322 DNA at 20 uM after 30 mins by agarose gel electrophoresis relative to control
Assignment: determine reported inhibition for the given compounds.
Express the result in % but write the number alone.

query: Which inhibition value is on record for "O=C(CN1CCN(c2cc3c(cc2F)c(=O)c(C(=O)O)cn3C2CC2)CC1)Nc1ccc(C(=O)/C=C/c2cccc([N+](=O)[O-])c2)cc1" ?
result: 11.1

query: Which inhibition value is on record for "Cc1ccc(/C=C/C(=O)c2ccc(NC(=O)CN3CCN(c4cc5c(cc4F)c(=O)c(C(=O)O)cn5C4CC4)CC3)cc2)c(C)c1" ?
result: 11

query: Which inhibition value is on record for "O=C(CN1CCN(c2cc3c(cc2F)c(=O)c(C(=O)O)cn3C2CC2)CC1)Nc1ccc(C(=O)/C=C/c2cccc(Cl)c2)cc1" ?
result: 3.1

Values from ChEMBL document CHEMBL2434966
